# protocol.summary: yeast display, Sf9 membrane polyspecificity reagent, FACS + sequencing; frameworks hold sequencing errors
observed.property: polyreactivity (PSR sort gate)

Consider the reported polyreactivity (PSR sort gate) for these sequences:
QVQLVESGGGLVQAGGSLRLSCAASGRTFSYYAMGWYRQAPGKERELVAAISSGGSTYYADSVKGRFTISRDNAKNTVYLQMNRLKPEDTAVYYCAKEYKQALGHVSFDYWGQGTQVTVSS | low polyreactivity
QVKLVESGRGLVQAGGSLRVSCAASGRIFQRYVMGWYRQAPGKERELVAAITWSGGSTYADSVKGRFTISRDNAKNTVYLQMNSLKTEDTAVYYCAARVPYNYWGMYYLYDYWGQGTQVTVSS | high polyreactivity
QVQLVESGGGLVQAGGSLRLSCAASGLTFKFYDMGWYRQAPVKEREFVAGITSSGGTTYYADSVKGRFTISRDNAKNTVYLQMNSLKPEVTAVYYCAAADIDDGPFDSWGQGTQVNVSS | low polyreactivity
QVQLVESGGGLVQAGGSLRLSCAASGFTFSQYAMGWYRQAPGKERELVAAINSRGGSTYYADSVKGRFTISRDNAKNTVYLQMNSLKPEDTAVYYCNAVISGYPYEYDYWGQGTQVTVSS | high polyreactivity

Per the record, `QVQLVESGGGLVQAGGSLRLSCAASGRTISYAMGWYRQAPGKEREMVAAIRYRGGSTYYADSVKGRFTISRDNAKNTVYLQMNSLKPEDTAVYYCAAQDSYTPPILFRRGYLRYDYWGQGTQVTVSS` has polyreactivity (PSR sort gate) of low polyreactivity
